- testDescription: Drug level in C57BL/6 mouse brain at 30 umol/kg, iv after 5 hrs
- Assay type: ADME, organism-based
- measurementContext: read-out: Drug uptake
endpointLabel: concentration at 5 h

### Prompt // lookup concentration at 5 h for CC(C)c1cccc(CNC[C@@H](O)[C@@H]2C[C@H](C)CCCCCCCCC(=O)N(C)[C@@H](C)C(=O)N2)c1
### Response > 1000 nM

----------
- testDescription: in vivo
- measurementContext: C57BL/6, mouse, brain/plasma, iv, 30 umol/kg
endpointLabel: Kp at 5 min
API note: the answer field is a bare number with no unit suffix.

### Prompt // lookup Kp at 5 min for CC(C)c1cccc(CNC[C@@H](O)[C@@H]2C[C@H](C)CCCCCCCCC(=O)N(C)[C@@H](C)C(=O)N2)c1
### Response 1.5
